- Read-out: Human Leukocyte Antigen - DR isotype (HLADR), HLA-DRA (gene 3122)
- assay remarks: BSK_3C_HLADR: BioMAP Diversity Plus: 3C Assay for Human Leukocyte Antigen - DR isotype (HLADR) Biomarker Activity (AID 2283019)
- measurement context: primary human endothelial cells (HUVEC); actives raise or lower the signal
Calls of active or inactive are those of the source. Rule for the calls: active = hit-call score of the fitted dose curve at least 0.9, where 1 is the maximum; inactive = score below 0.9.
value kind: AC50

The cases that follow already have their AC50 on record.
cpd_smiles=O=S(=O)(O)c1ccc(N=Nc2c(O)ccc3cc(S(=O)(=O)O)ccc23)cc1 value_kind=AC50 value_observed=inactive
cpd_smiles=CCOc1ccc2[nH]cc(C(=O)NCc3ccccc3)c(=O)c2n1 value_kind=AC50 value_observed=inactive
cpd_smiles=CC(C)c1nnc2ccc(-c3ocnc3-c3cc(F)ccc3F)cn12 value_kind=AC50 value_observed="833 nM (active)"
cpd_smiles=C=CN1CCCC1=O value_kind=AC50 value_observed=inactive
cpd_smiles=FC(F)(F)C(F)(F)C(F)(F)C(F)(F)C(F)(F)C(F)(F)I value_kind=AC50 value_observed=inactive

Consider the molecule COS(C)(=O)=O and give its measured AC50.
inactive

====

- assay remarks: ATG_E_Box_CIS: Attagene CIS-FACTORIAL HepG2 Assay for human Enhancer Box (E-box) (AID 2282936)
- measurement context: HepG2 E-box cis-reporter transcription, actives raise or lower the signal
The source made the active and inactive calls. Rule for the calls: active = hit-call score of the fitted dose curve at least 0.9, where 1 is the maximum; inactive = score below 0.9.
value kind: outcome

cpd_smiles=O=C(O)c1ccc2c(c1)nc(C(=O)NC1CCN(C3CC3)CC1)n2Cc1cc(-c2ccc(Cl)s2)on1 value_kind=outcome value_observed=inactive
cpd_smiles=OC[C@H]1O[C@@H]2O[C@H]3[C@H](O)[C@@H](O)[C@@H](O[C@H]4[C@H](O)[C@@H](O)[C@@H](O[C@H]5[C@H](O)[C@@H](O)[C@@H](O[C@H]6[C@H](O)[C@@H](O)[C@@H](O[C@H]7[C@H](O)[C@@H](O)[C@@H](O[C@H]1[C@H](O)[C@H]2O)O[C@@H]7CO)O[C@@H]6CO)O[C@@H]5CO)O[C@@H]4CO)O[C@@H]3CO value_kind=outcome value_observed=inactive

====

- assay remarks: BSK_3C_Proliferation: Cell Proliferation Assessment in the BioMAP Diversity Plus: 3C Assay (AID 2283006);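 for AC50: potency may reflect either rise or fall in cell number versus DMSO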
- measurement context: primary human endothelial cells (HUVEC)
The source made the active and inactive calls. The calls were made as follows: active = hit-call score of the fitted dose curve at least 0.9, where 1 is the maximum; inactive = score below 0.9.
value kind: AC50

The cases that follow already have their AC50 on record.
compound=NC(=O)N1c2ccccc2C=Cc2ccccc21 value_kind=AC50 value_observed=inactive
compound=OCC(CO)(CO)CO value_kind=AC50 value_observed=inactive
compound=COc1cc(C(C)C)c2c(c1)S(=O)(=O)N(COc1cc(=O)n3cccc(OCCN4CCCCC4)c3n1)C2=O value_kind=AC50 value_observed="4.63 µM (active)"
compound=OC[C@H]1O[C@@](CO)(O[C@H]2O[C@H](CO)[C@@H](O)[C@H](O)[C@H]2O)[C@@H](O)[C@@H]1O value_kind=AC50 value_observed=inactive
compound=c1ccc2ncccc2c1 value_kind=AC50 value_observed=inactive

Consider the compound FC(F)=C(F)C(F)(F)C(F)(F)C(F)(F)C(F)(F)C(F)(F)C(F)(F)F and give its measured AC50.
inactive

What would you report for COCc1nnc(-c2ccc[n+]([O-])c2)n1-c1c(Cl)c(Cl)cc2[nH]c(=O)c(=O)[nH]c12 ?
inactive

What would you report for Cc1ncc([C@@H](CCCCCCc2ccc3c(n2)NCCC3)CC(=O)O)cn1 ?
2.14 µM (active)

The origin of these recorded values is PubChem BioAssay (EPA / NIEHS).
